- Tested On: UniProtKB P35968
- Sequence (P35968 whole entry): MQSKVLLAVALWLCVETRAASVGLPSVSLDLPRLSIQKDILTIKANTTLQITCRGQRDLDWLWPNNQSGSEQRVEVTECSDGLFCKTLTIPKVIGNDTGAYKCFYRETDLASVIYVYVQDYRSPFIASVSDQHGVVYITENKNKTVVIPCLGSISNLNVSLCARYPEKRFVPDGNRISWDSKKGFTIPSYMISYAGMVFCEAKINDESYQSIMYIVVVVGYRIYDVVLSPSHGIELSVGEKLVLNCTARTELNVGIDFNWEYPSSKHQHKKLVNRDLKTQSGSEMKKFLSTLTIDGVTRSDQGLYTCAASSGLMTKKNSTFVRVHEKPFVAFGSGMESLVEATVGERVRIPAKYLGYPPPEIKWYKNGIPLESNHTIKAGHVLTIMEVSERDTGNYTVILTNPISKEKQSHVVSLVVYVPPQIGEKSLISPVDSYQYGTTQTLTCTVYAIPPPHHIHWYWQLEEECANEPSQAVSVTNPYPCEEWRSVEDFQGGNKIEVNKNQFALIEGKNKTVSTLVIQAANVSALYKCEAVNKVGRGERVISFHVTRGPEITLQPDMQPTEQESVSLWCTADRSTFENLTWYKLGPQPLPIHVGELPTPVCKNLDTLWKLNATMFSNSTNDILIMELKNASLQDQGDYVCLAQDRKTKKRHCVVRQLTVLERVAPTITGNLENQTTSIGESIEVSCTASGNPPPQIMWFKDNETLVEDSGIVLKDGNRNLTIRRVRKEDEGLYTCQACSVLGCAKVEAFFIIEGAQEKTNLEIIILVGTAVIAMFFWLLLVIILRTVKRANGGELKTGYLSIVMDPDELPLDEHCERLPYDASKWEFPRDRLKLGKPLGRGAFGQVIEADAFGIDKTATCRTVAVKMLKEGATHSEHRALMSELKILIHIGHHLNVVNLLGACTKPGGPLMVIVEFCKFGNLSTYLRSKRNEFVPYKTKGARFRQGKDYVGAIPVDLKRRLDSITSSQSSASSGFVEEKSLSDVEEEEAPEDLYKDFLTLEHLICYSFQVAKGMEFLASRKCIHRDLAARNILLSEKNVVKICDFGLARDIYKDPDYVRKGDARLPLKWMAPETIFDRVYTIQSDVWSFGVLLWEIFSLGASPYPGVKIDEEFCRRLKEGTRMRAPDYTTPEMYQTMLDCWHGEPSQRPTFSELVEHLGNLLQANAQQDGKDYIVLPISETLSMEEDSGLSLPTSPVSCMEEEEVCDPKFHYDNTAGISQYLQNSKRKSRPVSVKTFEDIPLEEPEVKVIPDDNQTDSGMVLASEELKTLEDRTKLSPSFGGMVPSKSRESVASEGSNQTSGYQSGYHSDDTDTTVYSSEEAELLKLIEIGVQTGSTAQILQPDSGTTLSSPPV
pIC50: −log10 of the molar value.
Readout Name: pIC50

COc1cc(Nc2ccc3ncc(-c4cnn(C)c4)nc3c2)cc(OC)c1 6.25

(P) Cn1cc(-c2cnc3ccc(Cl)cc3n2)cn1
(Q) COc1ccc(CNc2ccc3ncc(-c4cnn(C)c4)nc3c2)c(OC)c1
Which shows the larger pIC50 value: P or Q ? Select an item and report its label.
P

---

- Tested On: Fibroblast growth factor receptor 3 (Homo sapiens, UniProt P22607)
- Sequence (P22607 whole entry): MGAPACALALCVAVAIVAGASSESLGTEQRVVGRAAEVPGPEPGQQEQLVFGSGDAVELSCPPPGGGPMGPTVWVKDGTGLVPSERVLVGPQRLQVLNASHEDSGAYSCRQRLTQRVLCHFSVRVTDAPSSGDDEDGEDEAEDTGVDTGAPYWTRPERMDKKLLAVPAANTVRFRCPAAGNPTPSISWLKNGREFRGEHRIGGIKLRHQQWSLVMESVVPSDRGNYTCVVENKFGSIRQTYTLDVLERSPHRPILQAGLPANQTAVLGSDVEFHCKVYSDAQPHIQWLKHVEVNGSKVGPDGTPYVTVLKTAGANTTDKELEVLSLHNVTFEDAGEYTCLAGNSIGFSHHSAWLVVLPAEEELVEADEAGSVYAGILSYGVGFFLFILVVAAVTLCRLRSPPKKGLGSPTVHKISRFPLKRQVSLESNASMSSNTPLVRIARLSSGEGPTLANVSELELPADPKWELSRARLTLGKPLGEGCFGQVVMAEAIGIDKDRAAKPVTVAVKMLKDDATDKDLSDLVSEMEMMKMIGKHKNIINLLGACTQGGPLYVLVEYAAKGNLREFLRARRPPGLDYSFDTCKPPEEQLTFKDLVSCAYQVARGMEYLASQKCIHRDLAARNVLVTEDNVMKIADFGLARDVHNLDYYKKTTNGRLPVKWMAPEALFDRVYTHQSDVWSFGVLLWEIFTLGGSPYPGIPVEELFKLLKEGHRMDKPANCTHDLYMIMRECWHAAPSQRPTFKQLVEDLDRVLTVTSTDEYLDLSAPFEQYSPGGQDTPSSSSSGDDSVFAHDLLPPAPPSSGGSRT
- Assay Summary: biochemical
- Description: Inhibition of wild type His-tagged human FGFR3 (455 to 763 residues) expressed in Sf9 insect cells by ELISA
Readout Name: IC50 (µM)

Cn1cc(-c2cnc3ccc(Cl)cc3n2)cn1 6.5

(1) Nc1ccc2nccnc2c1
(2) COc1cc(Nc2ccc3ncc(-c4cnn(C)c4)nc3c2)cc(OC)c1
(3) COc1ccc(CNc2ccc3ncc(-c4cnn(C)c4)nc3c2)c(OC)c1
Order the items by recorded IC50; the first position goes to the largest value. Answer by listing the labels in the order asked for.
1, 3, 2
